variants and their reported protein stability index
B1: MLL5 (parent)
chain: EQIAERKRKMVSWEASSLGLVTAA

Variants of: B1
METHOD_SUMMARY: protein stability index of a GFP-peptide fusion (GPS, HEK-293T) (PSI 1-6); higher = more stable;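 also: lentivirally expressed fusions sorted by FACS into six bins by GFP to DsRed ratio, PSI derived from sequencing read proportions per bin multiplied by bin number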
CONDITION_INFO: c terminus: a fixed tail appended
Lab note: jot the number down without any unit.

Req: So what does the record say about protein stability index for K7G ?
Resp: 2.93

Req: I'd like to know its protein stability index. The variant in question is K9R
Resp: 3.06

Req: Look up protein stability index for this variant: G19N
Resp: 2.95

Req: I'd like to know its protein stability index. The variant in question is A15H
Resp: 3

Req: # input variant: I3L ; wanted: its protein stability index
Resp: 3.07

Req: Please look up its protein stability index: K7V
Resp: 3.02

Req: Look up protein stability index: L18R
Resp: 3.01

Req: Reported protein stability index, variant A24V : ____
Resp: 3.04
